Origin of the recorded values: ChEMBL document CHEMBL1157747

# Assay Overview: Oral bioavailability in CD rat at 30 mg/kg
# Assay type: ADME, organism-based
# Details: in vivo
Assay Readout: bioavailability (%)
Record the value in %, omitting the unit from your answer.

Recorded bioavailability of "CNC(=O)NC(=O)[C@H](CC1CCCC1)c1ccc(Cl)c(Cl)c1" , please.
13

###

# Assay Overview: Clearance in CD rat at 5 mg/kg, iv
# Type: ADME, organism-based
# Parameters: dose 5 mg/kg, route intravenous
# Details: in vivo
This section presents molecules with their documented clearance values.
Kindly answer with a numeric value in L/h/kg, unit omitted.

- Molecular String: "CS(=O)(=O)c1ccc([C@@H](CC2CCCC2)C(=O)Nc2nccs2)cc1"
  Assay Readout: "clearance"
  Endpoint Result: 1.8

Shifting focus to the molecule that follows.
// clearance lookup, key: "CNC(=O)NC(=O)[C@H](CC1CCCC1)c1ccc(Cl)c(Cl)c1"
2.61

###

This listing pairs compounds with measured AUC(0-inf).
# Assay Overview: AUC (0 to infinity) in CD rat at 10 mg/kg, po
# Assay type: ADME, organism-based
# Set-up: time infinity, dose 10 mg/kg, route oral
# Details: plasma
// unit must come after the numeric part

- Compound: "CS(=O)(=O)c1ccc([C@@H](CC2CCCC2)C(=O)Nc2nccs2)cc1 [Ro-281675]"
  Endpoint Result: "5150 ng·h/mL"

Moving on to the next compound.
What AUC(0-inf) value was documented for this compound, "CNC(=O)NC(=O)[C@H](CC1CCCC1)c1ccc(Cl)c(Cl)c1" ?
455 ng·h/mL

###

# Tested on: Glucokinase (Homo sapiens)
# Assay Overview: Activity of glucokinase assessed as stimulatory concentration required to increase 1.5 fold enzymatic activity
Assay Readout: Activity (µM)
Enter your answer as a number in µM; do not include the unit.

- Molecule: "NC(=O)NC(=O)C(CC1CC1)c1ccc(Cl)c(Cl)c1 (stereo unspecified)"
  Unit Spec: "µM"
  Activity: 40
- Molecule: "O=C(Nc1nc(CO)cs1)C(CC1CCCC1)c1ccc(Cl)c(Cl)c1 (stereo unspecified)"
  Unit Spec: "µM"
  Activity: 0.99
- Molecule: "C=CCNC(=O)NC(=O)C(CC1CCCC1)c1ccc(Cl)c(Cl)c1 (stereo unspecified)"
  Unit Spec: "µM"
  Activity: 1.3
- Molecule: "CNC(=O)NC(=O)C(CC1CCCC1)c1ccc([N+](=O)[O-])cc1 (stereo unspecified)"
  Unit Spec: "µM"
  Activity: 5.4
- Molecule: "O=C(NCCO)NC(=O)C(CC1CCCC1)c1ccc(Cl)c(Cl)c1 (stereo unspecified)"
  Unit Spec: "µM"
  Activity: 3.4
- Molecule: "COC(=O)CCNC(=O)NC(=O)C(CC1CCCC1)c1ccc(Cl)c(Cl)c1 (stereo unspecified)"
  Unit Spec: "µM"
  Activity: 3.2

Next, consider the following molecule.
GET /values?readout=Activity&system=Glucokinase (Homo sapiens)&item= O=C(O)c1csc(NC(=O)C(CC2CCCC2)c2ccc(Cl)c(Cl)c2)n1 (stereo unspecified)
29

###

# System: Glucokinase (Homo sapiens)
# Assay Overview: Activity of glucokinase assessed as stimulatory concentration required to increase 1.5 fold enzymatic activity
Assay Readout: Activity
Note to self: number, then unit, no commentary.

Would you please look over these solved cases?
- Compound: "O=C(Nc1nccs1)C(CC1CCCC1)c1ccc(Cl)c(Cl)c1 (stereo unspecified)"
  Target Of Assay: "Glucokinase (Homo sapiens)"
  Endpoint Result: "0.94 µM"
- Compound: "NC(=O)NC(=O)C(CC1CCCCC1)c1ccc(Cl)c(Cl)c1 (stereo unspecified)"
  Target Of Assay: "Glucokinase (Homo sapiens)"
  Endpoint Result: "8.9 µM"
- Compound: "CNC(=O)NC(=O)C(CC1CCCC1)c1ccc(S(C)(=O)=O)cc1 (stereo unspecified)"
  Target Of Assay: "Glucokinase (Homo sapiens)"
  Endpoint Result: "1.5 µM"
- Compound: "NC(=O)NC(=O)C(CC1CCCCCC1)c1ccc(Cl)c(Cl)c1 (stereo unspecified)"
  Target Of Assay: "Glucokinase (Homo sapiens)"
  Endpoint Result: "12 µM"
- Compound: "CNC(=O)NC(=O)[C@H](CC1CCCC1)c1ccc(Cl)c(Cl)c1"
  Target Of Assay: "Glucokinase (Homo sapiens)"
  Endpoint Result: "0.41 µM"
- Compound: "C[S+]([O-])c1ccc(C(CC2CCCC2)C(=O)Nc2nccs2)cc1 (stereo unspecified)"
  Target Of Assay: "Glucokinase (Homo sapiens)"
  Endpoint Result: "2.2 µM"
- Compound: "CNC(=O)NC(=O)C(CC1CCCC1)c1ccc(F)c(F)c1 (stereo unspecified)"
  Target Of Assay: "Glucokinase (Homo sapiens)"
  Endpoint Result: "8.5 µM"
- Compound: "COC(=O)c1csc(NC(=O)C(CC2CCCC2)c2ccc(Cl)c(Cl)c2)n1 (stereo unspecified)"
  Target Of Assay: "Glucokinase (Homo sapiens)"
  Endpoint Result: "0.5 µM"
- Compound: "CCCNC(=O)NC(=O)C(CC1CCCC1)c1ccc(Cl)c(Cl)c1 (stereo unspecified)"
  Target Of Assay: "Glucokinase (Homo sapiens)"
  Endpoint Result: "1.3 µM"
- Compound: "COC(=O)c1cnc(NC(=O)C(CC2CCCC2)c2ccc(Cl)c(Cl)c2)s1 (stereo unspecified)"
  Target Of Assay: "Glucokinase (Homo sapiens)"
  Endpoint Result: "0.92 µM"

Next item in the queue.
Field: Activity (Glucokinase (Homo sapiens)). Entry: O=C(Nc1nccs1)C(CC1CCCC1)c1ccc(S(=O)(=O)C(F)(F)F)cc1 (stereo unspecified)
0.19 µM

###

# Assay Overview: Volume of distribution at steady state in CD rat at 5 mg/kg, iv
# Format: ADME, organism-based
# Design: dose 5 mg/kg, route intravenous
# Details: in vivo, read-out: Vdss
Vd values, listed per item
# value in L/kg; strip the unit string

- Compound: "CS(=O)(=O)c1ccc([C@@H](CC2CCCC2)C(=O)Nc2nccs2)cc1 [Ro-281675]"
  Assay Readout: "Vd"
  Endpoint Result: 2.16

Return reported Vd; argument: "CNC(=O)NC(=O)[C@H](CC1CCCC1)c1ccc(Cl)c(Cl)c1"
4.21

###

# Assay Overview: AUC (0 to infinity) in CD rat at 5 mg/kg, iv
# Type: ADME, organism-based
# Design: time infinity, dose 5 mg/kg, route intravenous
# Details: plasma
Recorded AUC(0-inf) by entry
I only need the number, in ng·h/mL, no unit after it.

- Molecular String: "CS(=O)(=O)c1ccc([C@@H](CC2CCCC2)C(=O)Nc2nccs2)cc1"
  Assay Readout: "AUC(0-inf)"
  Endpoint Result: 2770

Proceeding to the next compound to report its AUC(0-inf).
May I ask what AUC(0-inf) has been recorded for "CNC(=O)NC(=O)[C@H](CC1CCCC1)c1ccc(Cl)c(Cl)c1" ?
1880

###

# Tested on: Glucokinase (Homo sapiens)
# Assay Overview: Activity of glucokinase assessed as stimulatory concentration required to increase 1.5 fold enzymatic activity
// label = t if Activity is not less than 3 µM, otherwise f

Solved entries (count: 8):
- Molecule: "CNC(=O)NC(=O)C(CC(C)C)c1ccc(Cl)c(Cl)c1 (stereo unspecified)"
  Classification: "t"
- Molecule: "COC(=O)Cc1csc(NC(=O)C(CC2CCCC2)c2ccc(Cl)c(Cl)c2)n1 (stereo unspecified)"
  Classification: "f"
- Molecule: "CNC(=O)NC(=O)C(CC1CCCC1)c1cccc(Cl)c1 (stereo unspecified)"
  Classification: "t"
- Molecule: "NC(=O)NC(=O)C(CC1CCCC1)c1ccc(Cl)c(Cl)c1 (stereo unspecified)"
  Classification: "t"
- Molecule: "COC(=O)CNC(=O)NC(=O)C(CC1CCCC1)c1ccc(Cl)c(Cl)c1 (stereo unspecified)"
  Classification: "f"
- Molecule: "O=C(Nc1nccs1)C(CC1CCCC1)c1ccc([N+](=O)[O-])cc1 (stereo unspecified)"
  Classification: "f"
- Molecule: "O=C(Nc1nccs1)C(CC1CCCC1)c1ccc(Cl)cc1 (stereo unspecified)"
  Classification: "t"
- Molecule: "O=C(Nc1nccs1)C(CC1CCCC1)c1cccc(S(=O)(=O)C(F)(F)F)c1 (stereo unspecified)"
  Classification: "f"

Could you tell me if the measured Activity of NC(=O)NC(=O)C(CC1CCC1)c1ccc(Cl)c(Cl)c1 (stereo unspecified) reaches 3 µM or more?
t

Note, next up: O=C(Nc1nccs1)C(CC1CCCC1)c1cccc(Cl)c1 (stereo unspecified)
f

Query CCOC(=O)c1cnc(NC(=O)C(CC2CCCC2)c2ccc(Cl)c(Cl)c2)s1 (stereo unspecified) next
t

###

# System: Glucokinase (Homo sapiens)
# Assay Overview: Activity of glucokinase assessed as stimulatory concentration required to increase 1.5 fold enzymatic activity
Assay Readout: Activity

- Compound: "O=C(Nc1nc(CCO)cs1)C(CC1CCCC1)c1ccc(Cl)c(Cl)c1 (stereo unspecified)"
  Endpoint Result: "0.84 µM"
- Compound: "CCOC(=O)CNC(=O)NC(=O)C(CC1CCCC1)c1ccc(Cl)c(Cl)c1 (stereo unspecified)"
  Endpoint Result: "1.3 µM"
- Compound: "CNC(=O)NC(=O)C(CC1CCCC1)c1ccc(Cl)cc1 (stereo unspecified)"
  Endpoint Result: "5.4 µM"
- Compound: "CCOC(=O)Cc1csc(NC(=O)C(CC2CCCC2)c2ccc(Cl)c(Cl)c2)n1 (stereo unspecified)"
  Endpoint Result: "0.61 µM"

Query (compound): CC(C)CC(C(=O)NC(N)=O)c1ccc(Cl)c(Cl)c1 (stereo unspecified) ; field requested: Activity
29 µM

Next compound: CNC(=O)NC(=O)C(CC1CCCC1)c1ccccc1 (stereo unspecified)
28.2 µM

Check CC(C)CNC(=O)NC(=O)C(CC1CCCC1)c1ccc(Cl)c(Cl)c1 (stereo unspecified) too.
6.3 µM

Another compound to check: Cc1csc(NC(=O)C(CC2CCCC2)c2ccc(Cl)c(Cl)c2)n1 (stereo unspecified)
1.2 µM

// repeat for CNC(=O)NC(=O)C(CC1CCCC1)c1cccc(S(=O)(=O)C(F)(F)F)c1 (stereo unspecified) and report
1 µM

Please answer likewise for CCOC(=O)c1csc(NC(=O)C(CC2CCCC2)c2ccc(Cl)c(Cl)c2)n1 (stereo unspecified)
2.7 µM
